System: SW480
Test: cell viability (CellTiter-Glo) relative to plate median (fraction of plate median); higher = more viable cells
Details: 5 µM; treatment time 24 h; reporter: 7TFP
// classify: if (cell viability < 1) 1.0 else 0.0

Some solved entries appear below for comparison.
(Q) Please state whether cell viability is below 1 for C[C@]12CC[C@@H](O)C[C@H]1CCc1ccccc12 [3alpha-HYDROXY-4,4-BISNOR-8,11,13-PODOCARPATRIENE]
(A) 0.0

(Q) Please state whether cell viability is below 1 for `COc1ccc(CN(CCN(C)C)c2ccccn2)cc1`
(A) 0.0

(Q) Please state whether cell viability is below 1 for `CC1(C)O[C@H]2CC(=O)OC[C@]23[C@H]2CC[C@@]4(C)[C@H](c5ccoc5)OC(=O)[C@H]5O[C@]54[C@]2(C)C(=O)C[C@@H]13`
(A) 0.0

(Q) Please state whether cell viability is below 1 for `CO/N=C1\C[C@]2(C[C@@H]3C[C@@H](C/C=C(\C)C[C@@H](C)/C=C/C=C4\CO[C@@H]5[C@H](O)C(C)=C[C@@H](C(=O)O3)[C@]45O)O2)O[C@H](/C(C)=C/C(C)C)[C@H]1C`
(A) 1.0

(Q) Please state whether cell viability is below 1 for `O=c1c2cc(O)c(O)cc2oc2cc(O)c([C@@H]3O[C@H](CO)[C@@H](O)[C@H](O)[C@H]3O)c(O)c12`
(A) 0.0

(Q) Please state whether cell viability is below 1 for `CCCN(CCC)S(=O)(=O)c1ccc(C(=O)O)cc1`
(A) 0.0

Next:
(Q) Please state whether cell viability is below 1 for `NS(=O)(=O)c1cc2c(cc1Cl)NCNS2(=O)=O`
(A) 0.0

(Q) Please state whether cell viability is below 1 for `S=c1[nH]cnc2nc[nH]c12`
(A) 1.0

(Q) Please state whether cell viability is below 1 for `O=C1c2ccccc2C(=O)c2c(O)c(O)cc(O)c21`
(A) 0.0

(Q) Please state whether cell viability is below 1 for `NNc1nncc2ccccc12`
(A) 0.0

(Q) Please state whether cell viability is below 1 for `CC[C@H](/C=C/[C@@H](C)[C@H]1CC[C@H]2[C@@H]3CC=C4C[C@@H](O)CC[C@]4(C)[C@H]3CC[C@]12C)C(C)C`
(A) 0.0
